Below, each of the compounds is paired with its reported IC50 value.
- SYSTEM UNDER TEST: PARP1 (Homo sapiens)
- Sequence (P09874 whole entry): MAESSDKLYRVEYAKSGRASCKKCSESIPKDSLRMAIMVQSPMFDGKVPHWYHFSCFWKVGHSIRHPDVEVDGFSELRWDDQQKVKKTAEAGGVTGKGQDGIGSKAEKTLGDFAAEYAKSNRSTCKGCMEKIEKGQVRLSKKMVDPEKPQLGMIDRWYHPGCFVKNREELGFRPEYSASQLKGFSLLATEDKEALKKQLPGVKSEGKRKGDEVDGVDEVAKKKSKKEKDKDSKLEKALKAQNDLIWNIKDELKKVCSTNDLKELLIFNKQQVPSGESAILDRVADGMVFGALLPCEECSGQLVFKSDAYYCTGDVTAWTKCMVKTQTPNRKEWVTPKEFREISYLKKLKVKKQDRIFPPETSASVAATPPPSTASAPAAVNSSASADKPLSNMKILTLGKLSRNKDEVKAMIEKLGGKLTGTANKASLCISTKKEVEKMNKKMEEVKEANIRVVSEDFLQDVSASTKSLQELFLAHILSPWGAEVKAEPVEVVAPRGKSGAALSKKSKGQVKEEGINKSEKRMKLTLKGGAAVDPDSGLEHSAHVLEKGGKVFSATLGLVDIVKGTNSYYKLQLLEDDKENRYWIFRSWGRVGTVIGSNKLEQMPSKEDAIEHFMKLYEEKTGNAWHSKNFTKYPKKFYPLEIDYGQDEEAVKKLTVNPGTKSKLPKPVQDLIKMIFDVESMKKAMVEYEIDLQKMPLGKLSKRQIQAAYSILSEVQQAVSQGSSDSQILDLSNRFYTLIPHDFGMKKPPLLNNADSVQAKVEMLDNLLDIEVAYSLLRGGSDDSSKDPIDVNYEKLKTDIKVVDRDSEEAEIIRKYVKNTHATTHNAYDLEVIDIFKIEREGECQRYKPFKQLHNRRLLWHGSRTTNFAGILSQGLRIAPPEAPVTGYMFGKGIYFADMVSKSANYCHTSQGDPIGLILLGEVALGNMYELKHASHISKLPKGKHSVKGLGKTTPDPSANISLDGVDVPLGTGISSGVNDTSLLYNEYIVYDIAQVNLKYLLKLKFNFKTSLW
- PROTOCOL TEXT: PARP trapping assay in U2OS cells
- Format: cell-based
- Set-up: endogenous in cells; host or cells: U2OS
- SETUP CONDITIONS: U2OS cells, MMS, 4 hrs; read-out: PARP Trapping (U2OS)

[
  {
    "COMPOUND": "O=C(N[C@@H](C(=O)N1CCN(CC2CCN(CC(=O)N3CCN(C(=O)c4cc(Cc5n[nH]c(=O)c6ccccc56)ccc4F)CC3)CC2)CC1)C1CCCCC1)c1cccc(C2CCCN(C(=O)CNC3CC3)C2)c1 (stereo partly shown) [Compound I-183]",
    "REPORTED VALUE": "100 to 1000 nM"
  },
  {
    "COMPOUND": "O=C(CN1CCN(CC2CCN(C(=O)c3c(F)cc(-c4ccccn4)cc3F)CC2)CC1)N1CCN(C(=O)c2cc(Cc3n[nH]c(=O)c4ccccc34)ccc2F)CC1 [Compound I-769]",
    "REPORTED VALUE": "< 10 nM"
  },
  {
    "COMPOUND": "CC(C)(C)OC(=O)Nc1cc(-c2cccc(C#N)c2)cnc1C(=O)NCCOCCNCC(=O)N1CCN(C(=O)c2cc(Cc3n[nH]c(=O)c4ccccc34)ccc2F)CC1 [Compound I-818]",
    "REPORTED VALUE": "100 to 1000 nM"
  },
  {
    "COMPOUND": "O=C(N[C@@H](C(=O)N1CCN(CC2CCN(CC(=O)N3CCN(C(=O)c4cc(Cc5n[nH]c(=O)c6ccccc56)ccc4F)CC3)CC2)CC1)C1CCCCC1)c1cccc(C2CCCN(C(=O)CNCc3ccc(F)cc3F)C2)c1 (stereo partly shown) [Compound I-184]",
    "REPORTED VALUE": "100 to 1000 nM"
  },
  {
    "COMPOUND": "O=C(N[C@@H](C(=O)N1CCN(CC2CCN(CC(=O)N3CCN(C(=O)c4cc(Cc5n[nH]c(=O)c6ccccc56)ccc4F)CC3)CC2)CC1)C1CCCCC1)c1cccc([C@@H]2CCCN(C(=O)CNC3CC3)C2)c1 [Compound I-365]",
    "REPORTED VALUE": "100 to 1000 nM"
  },
  {
    "COMPOUND": "CCOc1cc(OC)ccc1COCC(=O)N1CCCC(c2cccc(C(=O)N[C@@H](C(=O)N3CCN(CC4CCN(CC(=O)N5CCN(C(=O)c6cc(Cc7n[nH]c(=O)c8ccccc78)ccc6F)CC5)CC4)CC3)C3CCCCC3)c2)C1 (stereo partly shown) [Compound I-354]",
    "REPORTED VALUE": "10 to 100 nM"
  },
  {
    "COMPOUND": "CC1(OC(=O)N[C@@H](C(=O)N2CCC(OC3CCN(CC(=O)N4CCN(C(=O)c5cc(Cc6n[nH]c(=O)c7ccccc67)ccc5F)CC4)CC3)CC2)C2CCCCC2)CCC1 [Compound I-749]",
    "REPORTED VALUE": "10 to 100 nM"
  },
  {
    "COMPOUND": "O=C(CN1CCC(OC2CCN(C(=O)c3c(F)cc(-c4ccccc4)cc3F)CC2)CC1)N1CCN(C(=O)c2cc(Cc3n[nH]c(=O)c4ccccc34)ccc2F)CC1 [Compound I-634]",
    "REPORTED VALUE": "10 to 100 nM"
  }
]

Query block: Supply reported IC50 belonging to this compound: O=C(N[C@@H](C(=O)N1CCN(CC2CCN(CC(=O)N3CCN(C(=O)c4cc(Cc5n[nH]c(=O)c6ccccc56)ccc4F)CC3)CC2)CC1)C1CCCCC1)c1cccc(C2CCCN(C(=O)COC3CC3)C2)c1 (stereo partly shown) [Compound I-353]
Result block: 100 to 1000 nM

Query block: Supply reported IC50 belonging to this compound: O=C(CNC1CC1)N1CCCC(c2cccc(C(=O)N3CCN(CC45CCC(C(=O)N6CCN(C(=O)c7cc(Cc8n[nH]c(=O)c9ccccc89)ccc7F)CC6)(CC4)CO5)CC3)c2)C1 (stereo not shown) [Compound I-377]
Result block: 10 to 100 nM

Query block: Supply reported IC50 belonging to this compound: O=C(CN1CCN(CC2CCN(C(=O)c3c(F)cc(-c4ccccc4)cc3F)CC2)CC1)N1CCN(C(=O)c2cc(Cc3n[nH]c(=O)c4ccccc34)ccc2F)CC1 [Compound I-635]
Result block: 10 to 100 nM

Query block: Supply reported IC50 belonging to this compound: CC(C)(C)OC(=O)N[C@@H](C(=O)N1CCC(OC2CCN(CC(=O)N3CCN(C(=O)c4cc(Cc5n[nH]c(=O)c6ccccc56)ccc4F)CC3)CC2)CC1)C1CCCCC1 [Compound I-787]
Result block: 10 to 100 nM

Query block: Supply reported IC50 belonging to this compound: CCc1cccc(-c2cnc(C(=O)N3CCN(CC4CCN(CC(=O)N5CCN(C(=O)c6cc(Cc7n[nH]c(=O)c8ccccc78)ccc6F)CC5)CC4)CC3)c(NC(=O)CNCc3cc(C)no3)c2)c1 [Compound I-233]
Result block: 100 to 1000 nM

###

- Test system: Poly/Mono-ADP Ribose in U2OS cells
- PROTOCOL TEXT: PAR in cell western assay (parylation) in U2OS cells
- Type: cell-based
- SETUP CONDITIONS: Homo sapiens; U2OS cells, 6 hrs, 2 mM H2O2; read-out: Parylation (U2OS)
pIC50: −log10 of the molar value.
READOUT KIND: pIC50

Reference set (3 entries):
[
  {
    "COMPOUND": "O=C(CNC1CC1)N1CCCC(c2cccc(C(=O)N3CCN(CC45CCC(C(=O)N6CCN(C(=O)c7cc(Cc8n[nH]c(=O)c9ccccc89)ccc7F)CC6)(CC4)CO5)CC3)c2)C1 (stereo not shown)",
    "REPORTED VALUE": "7.00 to 8.00"
  },
  {
    "COMPOUND": "CC1(OC2CCN(CC(=O)N3CCN(C(=O)c4cc(Cc5n[nH]c(=O)c6ccccc56)ccc4F)CC3)CC2)CCN(C(=O)[C@H](NC(=O)c2cccc(C3CCCN(C(=O)C45CC(C4)C5)C3)c2F)C2CCCCC2)CC1 (stereo partly shown)",
    "REPORTED VALUE": "6.00 to 7.00"
  },
  {
    "COMPOUND": "CCc1cccc(-c2cnc(C(=O)NCCOCCNCC(=O)N3CCN(C(=O)c4cc(Cc5n[nH]c(=O)c6ccccc56)ccc4F)CC3)c(NC(=O)CNCc3cccc(C)c3)c2)c1",
    "REPORTED VALUE": "6.00 to 7.00"
  }
]

Query block: Supply reported pIC50 belonging to this compound: CCc1cccc(-c2cnc(C(=O)N3CCC(CN4CCN(CC(=O)N5CCN(C(=O)c6cc(Cc7n[nH]c(=O)c8ccccc78)ccc6F)CC5)CC4)CC3)c(NC3CC3)c2)c1
Result block: 7.00 to 8.00

###

- System: Poly/Mono-ADP Ribose in U2OS cells
- PROTOCOL TEXT: PAR in cell western assay (parylation) in U2OS cells
- Type: cell-based
- SETUP CONDITIONS: Homo sapiens; U2OS cells, 6 hrs, 2 mM H2O2; read-out: Parylation (U2OS)
READOUT KIND: IC50

Reference set (8 entries):
[
  {
    "COMPOUND": "CC(C)(C)C(=O)N1CCC[C@H](c2cccc(C(=O)N[C@@H](C(=O)N3CCC(OC4CCN(CC(=O)N5CCN(C(=O)c6cc(Cc7n[nH]c(=O)c8ccccc78)ccc6F)CC5)CC4)CC3)C3CCCCC3)c2F)C1 [Compound I-910]",
    "REPORTED VALUE": "100 to 1000 nM"
  },
  {
    "COMPOUND": "CC1(C)CC(c2ccc(C(=O)N[C@@H](C(=O)N3CCC(OC4CCN(CC(=O)N5CCN(C(=O)c6cc(Cc7n[nH]c(=O)c8ccccc78)ccc6F)CC5)CC4)CC3)C3CCCCC3)c(F)c2)CCN1C(=O)C1CC1 (stereo partly drawn) [Compound I-743]",
    "REPORTED VALUE": "10 to 100 nM"
  },
  {
    "COMPOUND": "O=C(CN1CCC(OC2CCN(C(=O)c3c(F)cc(-c4cccnn4)cc3F)CC2)CC1)N1CCN(C(=O)c2cc(Cc3n[nH]c(=O)c4ccccc34)ccc2F)CC1 [Compound I-771]",
    "REPORTED VALUE": "< 10 nM"
  },
  {
    "COMPOUND": "CC(C)(C)C(=O)N1CCC[C@@](F)(c2cccc(C(=O)N[C@@H](C(=O)N3CCC(OC4CCN(CC(=O)N5CCN(C(=O)c6cc(Cc7n[nH]c(=O)c8ccccc78)ccc6F)CC5)CC4)CC3)C3CCCCC3)c2F)C1 [Compound I-994]",
    "REPORTED VALUE": "100 to 1000 nM"
  },
  {
    "COMPOUND": "O=C(NC(C(=O)N1CCC(OC2CCN(CC(=O)N3CCN(C(=O)c4cc(Cc5n[nH]c(=O)c6ccccc56)ccc4F)CC3)CC2)CC1)C1CCCCC1)c1cccc(C2CCCN(C(=O)CNCc3ccc(F)cc3F)C2)c1 (stereo not drawn) [Compound I-369]",
    "REPORTED VALUE": "10 to 100 nM"
  },
  {
    "COMPOUND": "CC1(C(=O)N2CCCC(c3cccc(C(=O)N[C@@H](C(=O)N4CCC(OC5CCN(CC(=O)N6CCN(C(=O)c7cc(Cc8n[nH]c(=O)c9ccccc89)ccc7F)CC6)CC5)CC4)C4CCCCC4)c3F)C2)CC1 (stereo partly drawn) [Compound I-660]",
    "REPORTED VALUE": "100 to 1000 nM"
  },
  {
    "COMPOUND": "O=C(CN1CCN(CC2CCN(C(=O)c3c(F)cc(-c4cnccn4)cc3F)CC2)CC1)N1CCN(C(=O)c2cc(Cc3n[nH]c(=O)c4ccccc34)ccc2F)CC1 [Compound I-739]",
    "REPORTED VALUE": "< 10 nM"
  },
  {
    "COMPOUND": "CC(C)(C)OC(=O)N1CCCC(c2cccc(Oc3cnnc(N4CCC(OC5CCN(CC(=O)N6CCN(C(=O)c7cc(Cc8n[nH]c(=O)c9ccccc89)ccc7F)CC6)CC5)CC4)c3)c2)C1 (stereo not drawn) [Compound I-870]",
    "REPORTED VALUE": "10 to 100 nM"
  }
]

We next turn to a different compound, shown below.
Query block: With Poly/Mono-ADP Ribose in U2OS cells as the test system, provide measured IC50 for this compound: O=C(CN1CCN(CC2CCN(C(=O)c3c(F)cc(-c4ccccn4)cc3F)CC2)CC1)N1CCN(C(=O)c2cc(Cc3n[nH]c(=O)c4ccccc34)ccc2F)CC1 [Compound I-769]
Result block: < 10 nM

Reference source: patent US20250127907A1
